Cited source: the RNAGym collection of RNA variant scans (doi:10.7554/elife.80360)

B1: Twister Ribozyme (parent)
chain: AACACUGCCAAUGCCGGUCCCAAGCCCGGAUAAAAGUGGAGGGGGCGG

Variants of: B1
measurement.description: self-cleavage, relative activity (ratio to wild type); higher = more cleavage; co-transcriptional
endpoint: self-cleavage

variant.annotation: G13U G43U
endpoint: self-cleavage
measured.result: 0.155
//
variant.annotation: A34U G43C
endpoint: self-cleavage
measured.result: 0.186
//
variant.annotation: A4U G42A
endpoint: self-cleavage
measured.result: 0.0876
//
variant.annotation: G7U C27A
endpoint: self-cleavage
measured.result: 0.0728
//
variant.annotation: C14G G42C
endpoint: self-cleavage
measured.result: 0.095
//
variant.annotation: C27G C46U
endpoint: self-cleavage
measured.result: 0.105
//
variant.annotation: C26A A33C
endpoint: self-cleavage
measured.result: 0.359
//
variant.annotation: A22G A33C
endpoint: self-cleavage
measured.result: 0.147
//
variant.annotation: G42C G48A
endpoint: self-cleavage
measured.result: 0.516
//
variant.annotation: C14A A33C
endpoint: self-cleavage
measured.result: 0.884
//
variant.annotation: A34U G38A
endpoint: self-cleavage
measured.result: 0.654
//
variant.annotation: A11G G43C
endpoint: self-cleavage
measured.result: 0.169
//
variant.annotation: C21U A22U
endpoint: self-cleavage
measured.result: 0.072
//
variant.annotation: A23U G47U
endpoint: self-cleavage
measured.result: 0.163
//
variant.annotation: A4U G16U
endpoint: self-cleavage
measured.result: 0.0436
//
variant.annotation: C27G A40U
endpoint: self-cleavage
measured.result: 0.107
//
variant.annotation: C19G G29U
endpoint: self-cleavage
measured.result: 0.29
//
variant.annotation: G38C G48A
endpoint: self-cleavage
measured.result: 0.974
//
variant.annotation: G13C C15A
endpoint: self-cleavage
measured.result: 0.0696
